Assignment: determine reported Vd for the given compounds.
# PROCEDURE_DETAILS: Volume of distribution at steady state in rat at 2 mg/kg, po and 1 mg/kg, iv
# Type: ADME, organism-based
# SETUP_CONDITIONS: in vivo, read-out: Vdss
The answer is to be given in L/kg; state only the numeric part.

# input Let me know recorded Vd for `O=C(O)C1CN(Cc2ccc(-c3noc(-c4cc(-c5ccccc5)c(C(F)(F)F)s4)n3)cc2)C1` , thanks.
# output 1.9

# input Output measured Vd for this item: `O=C(O)C1CN(Cc2ccc(OCc3cc(-c4ccccc4)c(C(F)(F)F)s3)c(Cl)c2)C1`
# output 3.8

# input State its Vd: `O=C(O)C1CN(Cc2ccc(OCc3cc(-c4ccccc4)c(C(F)(F)F)s3)cc2)C1`
# output 10

# input State its Vd for this compound: `Cc1cc(CN2CC(C(=O)O)C2)ccc1OCc1cc(-c2ccccc2)c(C(F)(F)F)s1`
# output 5.7
